system: MOLT-4 leukemia; assay: NCI-60 one-dose screen, 48 h (100 = growth as untreated, 0 = no growth, -100 = all killed); conditions: 10 µM unless noted
About 83,000 compounds went through this panel and 20% of them were active in at least one assay; those are over-represented in the sample as a whole.
I would appreciate it if you labelled entries Fulfilled when growth is 40% or higher, otherwise Not fulfilled.

1) Nc1cc2c(cc1N)-c1cc(N)c(N)cc1C2 :: Fulfilled
2) CSc1nc(-c2cc3ccccc3o2)cc(-c2ccc(Cl)cc2)c1C#N :: Fulfilled
3) CCN(CC)c1cc(/C=C/c2ccc(OC)c(OC)c2)nc2cc(F)c(F)cc12 :: Fulfilled
4) COc1ccc([N+](=O)[O-])c(/C=C/C(=O)c2ccccn2)c1 :: Not fulfilled
5) CCOc1ccc(/C=C/C=N/NC(N)=S)cc1 :: Not fulfilled

* * *

tested on: SF-295 CNS; test: NCI-60 one-dose screen, 48 h (100 = growth as untreated, 0 = no growth, -100 = all killed); settings: 10 µM unless noted
This is part of a sample that, as a whole, favours compounds with a hit. Of some 83,000 tested, about 20% had one in any assay.
// growth lookup, one value per entry
result-type: growth (%)

1. Cn1c(-c2nonc2NC(=O)c2ccc(F)cc2)nc2ccccc21 :: 98.5
2. CCc1c(C(=O)Nc2ccc3ccccc3c2)[nH]c(C)c1C(C)=O :: 102
3. COc1ccc(/C(=N/O)c2cc(F)c(F)c(OC)c2F)cc1O :: 1.83
4. COc1cccc(-c2nc3sccn3c2-c2ccnc(NCCCNS(=O)(=O)c3ccc(F)cc3)n2)c1 :: 24.7
5. CC(C)CCC[C@@H](C)[C@H]1CC[C@H]2[C@@H]3CC[C@H]4C/C(=N/O)CC[C@]4(C)[C@H]3CC[C@]12C :: 101

* * *

System: MDA-MB-231 breast
Assay: NCI-60 one-dose screen, 48 h (100 = growth as untreated, 0 = no growth, -100 = all killed)
Conditions: 10 µM unless noted
Procedure: Cells are grown in 96 well plates and exposed to the test compound for 48 hours. Compounds are tested at a single concentration, which is 10^-5 M for most compounds. The reported endpoint is percent growth (GI% or GIPRCNT), where numbers from 0 - 100% represent growth inhibition, and numbers from -100% - 0 represent cell death. For example, a value of 40 represents 60% growth inhibition. A value of 0 means no net growth occurred over the course of the experiment. […]
About 83,000 compounds went through this panel and 20% of them were active in at least one assay; those are over-represented in the sample as a whole.
result-type: growth (%)

1) NC(=O)NC(=O)/C=C/C(=O)OCCCl :: 115
2) COc1cc(NC(=O)CSc2nc3ccc(C)cc3c(=O)n2-c2ccccc2)cc(OC)c1OC :: 77.3
3) Cc1ccc(-c2csc3nc(C)c(CCCl)c(=O)n23)cc1 :: 79.9
4) CCC(c1cccc(Br)c1)C(C(=O)O)c1ccc(OC)cc1 (stereo not drawn) :: 111
5) COc1ccc(/C=C/C(=O)OCC(=O)NNC(=O)c2ccccc2)cc1OC :: 94.8
6) C#CCN1C(=O)/C(=c2\sc3n(c2=O)C2C(NN=3)N(CC)C(=O)N2CC)c2ccccc21 (stereo not drawn) :: 21
7) COC12CC(=O)C(C(C)=O)=C(O)C1(C)c1c(O)c(C)c(O)c(C(C)=O)c1O2 (stereo not drawn) :: 92.7
8) Cc1ccc(C2=NN(c3ccc(S(=O)(=O)NC(=O)NCc4ccccc4)cc3)C(c3ccc(N(C)C)cc3)C2)c(C)c1 (stereo not drawn) :: 75.7

* * *

tested on: HS 578T breast; assay: NCI-60 one-dose screen, 48 h; conditions: 10 µM unless noted
About 83,000 compounds went through this panel and 20% of them were active in at least one assay; those are over-represented in the sample as a whole. Activity calls are given as the source filed them. The calls were made as follows: active = growth percent below 10; inactive = the rest.
Outcomes: active, inactive

1. COc1cc(C(=O)N2CCN(C(=O)c3ccco3)CC2)c(N)cc1OCc1ccccc1 :: inactive
2. COc1cc2nc(SCc3cc(OC)c(OC)c(OC)c3)n(Cc3ccccc3)c(=O)c2cc1OC :: inactive
3. O=C(NCCc1c[nH]c2ccccc12)C1Cc2ccccc2CN1C(=O)c1ccco1 (stereo not given) :: inactive
4. CC(C)C[C@H](NC(=O)Cn1ccc(NCc2ccccc2)cc1=O)B(O)O :: active
5. COc1cccc2nc(Nc3ccc(NC(=O)c4ccc5ncccc5c4)cc3)ccc12 :: inactive

* * *

tested on: OVCAR-4 ovarian; assay: NCI-60 one-dose screen, 48 h (100 = growth as untreated, 0 = no growth, -100 = all killed); conditions: 10 µM unless noted
About 83,000 compounds went through this panel and 20% of them were active in at least one assay; those are over-represented in the sample as a whole.
result-type: growth (%)

1) O=C(Nc1ccc(Br)c(Cl)c1)c1cc(F)ccc1O :: 12.4
2) C#CCN1C(=O)/C(=c2\sc3n(c2=O)C2C(NN=3)N(CC)C(=O)N2CC)c2ccccc21 (stereo unspecified) :: 47.5
3) COc1cc(OC)c(C(=O)/C=C/c2ccc(C(F)(F)F)cc2)c(OC)c1 :: 56.5
4) O=C(NNC(=S)Nc1ccccc1)c1ccccn1 :: 20.1
5) COc1cc(C(=O)CCCl)ccc1O :: 98.8
6) COc1ccc(-c2cn[nH]c2-c2cc(OC)c3c(c2)OCO3)cc1 :: 51

* * *

system: NCI-H322M lung; assay: NCI-60 one-dose screen, 48 h (100 = growth as untreated, 0 = no growth, -100 = all killed); settings: 10 µM unless noted
The panel holds about 83,000 compounds, 20% with a hit somewhere; the sample as a whole holds those more often. Calls of active or inactive are those of the source. How the source made its calls: active means growth percent below 10; inactive means the rest.
A collection of compounds and their measured growth
result-type: growth

1. CCOC(=O)C1=C(C)NC(=O)NC1c1ccc(OCC(=O)N/N=C/c2ccc(Cl)cc2)cc1 (stereo not given) :: 87.5% (inactive)
2. Cc1ccccc1C(=O)c1ccccc1C(=O)O :: 108% (inactive)
3. CC(C)(C)c1cn2cccc(C(=O)N3CCN(CC(=O)Nc4ccc(Cl)cc4C(=O)c4ccccc4Cl)CC3)c2n1 :: 94.6% (inactive)
4. Cc1ccc2c(c1)C(=O)C(c1c(-c3[nH]c(=O)c4ccc(C)cc4c3O)c(O)c3ccccc3c1O)=NC2=O :: 38.8% (inactive)
5. CCN(CC)CCSc1c2ccc(Cl)cc2nc2ccc(OC)cc12 :: 105% (inactive)
6. CCOC(=O)c1cc(/C(=N\O)c2cc(OC)c(OC)c(OC)c2)n2cc(C)cc(C)c12 :: 66.2% (inactive)
7. Cc1ccc(Cn2c(-c3cccs3)nc3ccccc32)cc1 :: 92% (inactive)
8. CC1Cc2c(N(C)C)ncnc2N(C)c2ccc(O)cc21 (stereo not given) :: 96.5% (inactive)
9. NC(=O)c1cccc(N2Cc3ccccc3OC3=C2C(=O)c2c(O)ccc(O)c2C3=O)c1 :: 25.5% (inactive)
10. COc1cccc2cc(-c3cc4ccccc4[nH]3)c(=NC(=O)c3ccc(Cl)cc3)oc12 :: 93.3% (inactive)

* * *

test system: CAKI-1 renal; test: NCI-60 one-dose screen, 48 h (100 = growth as untreated, 0 = no growth, -100 = all killed); conditions: 10 µM unless noted
Compounds without any hit were thinned out: in the full panel of roughly 83,000, 20% have a hit.
// bucketize growth: interval 1 (below 50%), interval 2 (50% to below 90%), interval 3 (90% or more)

1. CCCCCCCCCCC/C=C\C[C@H](O)C/C=C1/C(=O)C=C[C@@H]1C/C=C\CCCC(=O)OC :: interval 1
2. COc1cc(NC(=O)CCl)ccc(=O)c1 :: interval 1
3. Cc1cc(C)c2c(=O)[nH]c(SCC(=O)Nc3cccc(S(=O)(=O)N(C)C)c3)nc2n1 :: interval 3
4. O=C(/C=C/CN1CCCCC1)Nc1cc2c(Nc3ccc(F)c(Cl)c3F)ncnc2cc1OCCOC(F)F :: interval 1
5. Nc1c(C(=O)Nc2c(Cl)cccc2Cl)sc2nc3c(cc12)CCCCC3 :: interval 2
6. O=C(Nc1ccc(F)cc1)c1cc([N+](=O)[O-])ccc1O :: interval 2
7. COc1cc(CCn2nnc3c(NCCCCO)ncnc32)cc(OC)c1 :: interval 3
8. Cc1nc(Nc2cccnc2)sc1C(=O)/C=C/c1ccc(F)cc1 :: interval 1
9. CCCCCCCN(CCCCCCC)C(=N)c1ccc(OC)c2ccccc12 :: interval 1
10. COc1cccc(-n2cc(-c3nc(Cl)c4ccccc4n3)nn2)c1 :: interval 3
11. Cc1sc2nc(CSc3nnc(-c4ccco4)o3)[nH]c(=O)c2c1C :: interval 3
12. COC(=O)c1ccc(C)cc1 :: interval 3
13. COc1cccc(NC(=O)c2sc3nc4c(cc3c2N)CCCC4)c1 :: interval 1
14. O=C(CSc1nc(-c2ccc(Cl)cc2)cn1-c1ccc(Cl)cc1)c1ccc(Br)cc1 :: interval 2
15. CCNCc1ccncc1 :: interval 3
16. COC(=O)C(CC(=O)c1ccc(-c2ccccc2)cc1)c1ccccc1 (configuration not stated) :: interval 1
17. O=C(CN1CCN(c2cc3c(cc2F)c(=O)c(C(=O)O)cn3C2CC2)CC1)Nc1ccc(C(=O)/C=C/c2ccccc2)cc1 :: interval 2
18. NS(=O)(=O)c1ccc(NCC(=O)Nc2ccc(-c3nc4ccccc4s3)cc2)cc1 :: interval 3
19. Cc1cc(N/C=c2\sc3ncnn3c2=O)no1 :: interval 3
20. COc1cc(-c2nc(-c3nc4ccccc4[nH]3)cc3c2[nH]c2ccccc23)cc(OC)c1OC :: interval 1
21. c1ccc([P+](CCC[P+](c2ccccc2)(c2ccccc2)c2ccccc2)(c2ccccc2)c2ccccc2)cc1 :: interval 3
22. O=S(=O)(NCCNc1nccc(-c2c(-c3ccccc3)nc3sccn23)n1)c1ccc(O)cc1 :: interval 2

Where do these numbers come from? They come from PubChem BioAssay (NCI).
